These measurements were taken from patent US12208110B2.

# MEASUREMENT_NOTES: MT4 cytotoxicity analysis (CellTiter-Glo)
# Assay type: cell-based
# SETUP_CONDITIONS: human, MT4 CC50 (nM)
Label true (1) when CC50 at 5 days is strictly below 20000 nM; at or above that, label false (0).

[
  {
    "CHEMICAL_STRING": "CCCCCCCCCCCCCCOCCOP(=O)(O)OC[C@H]1O[C@@](C#N)(c2ccc3c(N)ncnn23)[C@H](O)[C@@H]1O",
    "CAT": "true (1)"
  },
  {
    "CHEMICAL_STRING": "CCCCCCCCCCCCCCCCCCOC[C@H](COP(=O)(O)OC[C@H]1O[C@@](C#N)(c2ccc3c(N)ncnn23)[C@H](O)[C@@H]1O)N1C(=O)c2ccccc2C1=O",
    "CAT": "false (0)"
  },
  {
    "CHEMICAL_STRING": "CCCCCCCCCCCCCCCCCCO[C@@H](C)[C@H](COP(=O)(O)OC[C@H]1O[C@@](C#N)(c2ccc3c(N)ncnn23)[C@H](O)[C@@H]1O)OCc1ccccc1",
    "CAT": "true (1)"
  },
  {
    "CHEMICAL_STRING": "CCCCCCCCCCCCCCCCCCOC[C@H](COP(=O)(O)OC[C@H]1O[C@@](C#N)(c2ccc3c(N)ncnn23)[C@H](O)[C@@H]1O)N(C)Cc1ccc(F)c(Cl)c1",
    "CAT": "true (1)"
  },
  {
    "CHEMICAL_STRING": "CCCCCCCCCCCCCCCCCCOC[C@H](COP(=O)(O)OC[C@H]1O[C@@](C#N)(c2ccc3c(N)ncnn23)[C@H](O)[C@@H]1O)OCc1ccc(F)c(Cl)c1F",
    "CAT": "true (1)"
  }
]
